Measured WHV active Yes/No (WNV (Kern515/WN02))
Measured endpoint: WHV active Yes/No

Compound | Subject of test | Observed
CC1=C[C@H]2O[C@@H]3[C@H](O)C[C@](C)([C@@]2(CO)[C@H](O)C1=O)[C@]31CO1 | WNV (Kern515/WN02) | Yes
CCN(CC)CCCC(C)Nc1ccnc2cc(Cl)ccc12 (stereo not drawn) [NCGC00015256, chloroquine, reference compound] | WNV (Kern515/WN02) | No
COc1ccc2c(c1)C=C1Cn3c-2c(C2CCCCC2)c2ccc(cc23)C(=O)N[S+](=O)([O-])N(C)CCOCCN(C)C1=O | WNV (Kern515/WN02) | No
